system: C. tropicalis strain H5343; assay: Toxicity tests of substrates (growth by absorbance at 600 nm, streak plates); format: cell-based; settings: substrate concentration 0.063%, 48 h, 30° C., dilution in YPD 1:100

Molecule	ABS 600.0 nm
CCCCCCCCC(=O)CCCCCCCC	0.064
C=CCCCCCCCCCC [Dodecene]	0.079
CCCCCCCCCCCCN	0.000
C=C[C@](C)(O)CC[C@@H]1[C@@]2(C)CCCC(C)(C)[C@@H]2CC[C@@]1(C)O	0.157

====

test system: C. tropicalis strain H5343; experiment: Toxicity tests of substrates (growth by absorbance at 600 nm, streak plates); assay type: cell-based; details: substrate concentration 0.5%, 48 h, 30° C., dilution in YPD 1:100
ABS 600.0 nm vs 0.05: less than gives 1; not less than gives 0.

Molecule	Answer Label
CCCCCCCCCCCCCCCCOC(=O)CCCCCCCC [Hexadecyl pelargonate]	0
CCCCCC#CCCCCC [6-Dodecyne]	0
CCCCCCCCCC(CCCCCCC)C(=O)O (stereo not shown) [2-Heptylundecanoic acid]	1
CCCCCCCCC(=O)CCCCCCCC [9-Heptadecanone]	0
CCCCCCCCCCCCCCCCOC(C)=O [Hexadecyl acetate]	0
CCCCCCCC/C=C\CCCCCCCCO [HD-Ocenol, oleyl alcohol]	0
C=CCCCCCCCCCC [Dodecene]	1
C=CCCCCCCCCCCCC [C14 a-Olefin, 1-tetradecene]	0
CCCCC(CC)C(=O)O (stereo not shown) [2-Ethylhexanoic acid]	1
CCCCCCCCC(CO)CCCCCC (stereo not shown) [2-Hexyl-1-decanol]	0
C=C(C)[C@@H]1CC=C(C)CC1 [S(−) limonene]	1
C=C(C)[C@H]1CC=C(C)CC1 [R(+) limonene]	1
C=C[C@](C)(O)CC[C@@H]1[C@@]2(C)CCCC(C)(C)[C@@H]2CC[C@@]1(C)O [Indu-Extrakt-sclareol, sclareol]	0
C=CCCCCCCCCCC [C12 a-Olefin]	0
C/C=C/CCCCCC [trans-2-nonene]	1
CCCCCCCCCCCCN [Dodecyclamine, Dodecylamine]	1
CCCCCC/C=C/CCCCCC [trans-7-tetradecene]	0
